Source of measurements: patent US10660876B2

- Subject of test: Human Factor D (Homo sapiens (Human), UniProt P00746)
- Sequence (P00746 26-253): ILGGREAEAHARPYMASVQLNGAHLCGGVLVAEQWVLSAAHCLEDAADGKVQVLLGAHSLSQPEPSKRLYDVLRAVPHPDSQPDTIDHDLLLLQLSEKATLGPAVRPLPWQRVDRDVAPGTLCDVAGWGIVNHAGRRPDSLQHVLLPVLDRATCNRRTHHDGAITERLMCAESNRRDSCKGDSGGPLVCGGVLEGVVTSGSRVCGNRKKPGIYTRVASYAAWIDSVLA
- Protocol notes: Human Factor D Assay
- Format: biochemical
- Measurement parameters: Table 2; Factor D purified from human serum, 80 nM, substrate Z-L-Lys-SBzl; read-out: IC50
Observable: IC50

The recorded IC50 for entry COCCOc1ncc(Nc2ccc3c(c2)c(C(C)=O)cn3CC(=O)N2C[C@H](F)C[C@H]2C(=O)Nc2cccc(Br)n2)cn1 equals < 1000 nM

###

Please respond with reported IC50 for every item in the list.
- Subject of test: Human Factor D (Homo sapiens (Human), UniProt P00746)
- Protocol notes: Human Factor D Assay
- Format: biochemical
- Measurement parameters: Table 1; Factor D purified from human serum, 80 nM, substrate Z-L-Lys-SBzl; read-out: IC50

For orientation, consider the following solved cases.
CC(=O)c1cn(CC(=O)N2C[C@H](F)C[C@H]2C(=O)Nc2nc(-c3cccc(Cl)c3)ns2)c2ccc(Nc3cncnc3)cc12 [Compound 60]    > 10 µM
CC(=O)c1cn(CC(=O)N2C[C@H](F)C[C@H]2C(=O)Nc2cncc(Cl)n2)c2ccc(Nc3cncnc3)cc12 [Compound 33]    < 1 µM
CC(=O)c1cn(CC(=O)N2C[C@H](F)C[C@H]2C(=O)Nc2noc3cc(C(F)(F)F)ccc23)c2ccc(Nc3cncnc3)cc12 [Compound 52]    1 to 10 µM

For every record below, what is its IC50?
1. NC(=O)c1nn(CC(=O)N2C[C@H](F)C[C@H]2C(=O)Nc2cccc(Cl)n2)c2ccc(Nc3cncnc3)cc12 [Compound 12]
2. CC(=O)c1cn(CC(=O)N2C[C@H](F)C[C@H]2C(=O)Nc2ccc3ccccc3c2)c2ccc(Nc3cncnc3)cc12 [Compound 46]

Reply:
["< 1 µM", "< 1 µM"]

Give me IC50 for each of these compounds, listed below.
1. CC(=O)c1cn(CC(=O)N2C[C@H](F)C[C@H]2C(=O)Nc2cc(O)ccn2)c2ccc(Nc3cncnc3)cc12 [Compound 72]
2. CC(=O)c1cn(CC(=O)N2C[C@H](F)C[C@H]2C(=O)Nc2cccnc2)c2ccc(Nc3cncnc3)cc12 [Compound 31]
3. CC(=O)c1cn(CC(=O)N2C[C@H](F)C[C@H]2C(=O)Nc2nc(-c3ccc4c(c3)CCCC4)cs2)c2ccc(Nc3cncnc3)cc12 [Compound 50]
4. CC(=O)c1cn(CC(=O)N2C[C@H](F)C[C@H]2C(=O)NCc2cccnc2)c2ccc(Nc3cncnc3)cc12 [Compound 43]
5. CC(=O)c1cn(CC(=O)N2C[C@H](F)C[C@H]2C(=O)NC2CCCN(c3cnn(C)c3)C2)c2ccc(Nc3cncnc3)cc12 (some centres unmarked) [Compound 42]
6. CC(=O)c1cn(CC(=O)N2C[C@H](F)C[C@H]2C(=O)Nc2cc3c(cc2F)OC(F)(F)O3)c2ccc(Nc3cncnc3)cc12 [Compound 35]

Reply:
["< 1 µM", "< 1 µM", "> 10 µM", "< 1 µM", "< 1 µM", "< 1 µM"]

Hey, can you go through the list below and give me IC50 for every item?
1. CC(=O)c1cn(CC(=O)N2C[C@H](F)C[C@H]2C(=O)Nc2cncc(Br)c2)c2ccc(Nc3cncnc3)cc12 [Compound 21]
2. CC(=O)c1cn(CC(=O)N2C[C@H](F)C[C@H]2C(=O)Nc2cccc3c2NC(=O)C(C)O3)c2ccc(Nc3cncnc3)cc12 (some centres unmarked) [Compound 71]
3. CC(=O)c1cn(CC(=O)N2C[C@H](F)C[C@H]2C(=O)Nc2cccc(-c3ccccc3Cl)c2F)c2ccc(Nc3cncnc3)cc12 [Compound 3]
4. CC(=O)c1cn(CC(=O)N2C[C@H](F)C[C@H]2C(=O)Nc2ccc(OCc3ccccc3)cn2)c2ccc(Nc3cncnc3)cc12 [Compound 45]
5. CC(=O)c1cn(CC(=O)N2C[C@H](F)C[C@H]2C(=O)Nc2cc(C)nn2-c2ccccc2F)c2ccc(Nc3cncnc3)cc12 [Compound 57]
6. CC(=O)c1cn(CC(=O)N2C[C@H](F)C[C@H]2C(=O)Nc2cc(C3CC3C)no2)c2ccc(Nc3cncnc3)cc12 (some centres unmarked) [Compound 65]

Reply:
< 1 µM
1 to 10 µM
< 1 µM
< 1 µM
< 1 µM
< 1 µM

Batch request: IC50 per item, same order as input.
1. CC(=O)c1cn(CC(=O)N2C[C@H](F)C[C@H]2C(=O)NC2CCCc3nc(-c4ccc(F)cc4)sc32)c2ccc(Nc3cncnc3)cc12 (some centres unmarked) [Compound 28]
2. CC(=O)c1cn(CC(=O)N2C[C@H](F)C[C@H]2C(=O)Nc2cccc3c2CN(c2ccccn2)C3)c2ccc(Nc3cncnc3)cc12 [Compound 27]
3. CC(=O)c1cn(CC(=O)N2C[C@H](F)C[C@H]2C(=O)Nc2ccc3ncsc3c2)c2ccc(Nc3cncnc3)cc12 [Compound 56]
4. CC(=O)c1cn(CC(=O)N2C[C@H](F)C[C@H]2C(=O)NC2CCN(c3ccn(C)n3)C2=O)c2ccc(Nc3cncnc3)cc12 (some centres unmarked) [Compound 64]
5. CC(=O)c1cn(CC(=O)N2C[C@H](F)C[C@H]2C(=O)Nc2nn(C)c3c2CC(C)C(=O)N3)c2ccc(Nc3cncnc3)cc12 (some centres unmarked) [Compound 67]
6. CC(=O)c1cn(CC(=O)N2C[C@H](F)C[C@H]2C(=O)Nc2cc(C)nc3nc(C(F)(F)F)nn23)c2ccc(Nc3cncnc3)cc12 [Compound 41]
7. CC(=O)c1cn(CC(=O)N2C[C@H](F)C[C@H]2C(=O)NCc2cccc(Cl)c2F)c2cc(NS(=O)(=O)C(F)(F)F)ccc12 [Compound 2]
8. CC(=O)c1cn(CC(=O)N2C[C@H](F)C[C@H]2C(=O)N[C@@H](C)c2oc3ccc(F)cc3c2C)c2ccc(Nc3cncnc3)cc12 [Compound 75]

Reply:
1: > 10 µM; 2: 1 to 10 µM; 3: < 1 µM; 4: < 1 µM; 5: 1 to 10 µM; 6: > 10 µM; 7: < 1 µM; 8: < 1 µM

Documented IC50 of CC(=O)c1cn(CC(=O)N2C[C@H](F)C[C@H]2C(=O)NCc2cc(F)cc(Cl)c2)c2ccc(Nc3cncnc3)cc12 [Compound 18] : < 1 µM

###

- Subject of test: Human Factor D (Homo sapiens (Human))
- Protocol notes: Human Factor D Assay
- Format: biochemical
- Measurement parameters: Table 1; Factor D purified from human serum, 80 nM, substrate Z-L-Lys-SBzl; read-out: IC50
Observable: IC50

CC(=O)c1cn(CC(=O)N2C[C@H](F)C[C@H]2C(=O)Nc2ccc(F)c(-c3nnc4n3CCCCC4)c2)c2ccc(Nc3cncnc3)cc12    < 1 µM
CC(=O)c1cn(CC(=O)N2C[C@H](F)C[C@H]2C(=O)Nc2n[nH]c(C)c2-c2ccccc2)c2ccc(Nc3cncnc3)cc12    < 1 µM
N#Cc1cnc(Nc2ccc3c(c2)c(C(N)=O)nn3CC(=O)N2C[C@H](F)C[C@H]2C(=O)Nc2cccc(-c3ccccc3Cl)c2F)nc1    < 1 µM
CC(=O)c1cn(CC(=O)N2C[C@H](F)C[C@H]2C(=O)NCc2ccccn2)c2ccc(Nc3cncnc3)cc12    < 1 µM

What the record says about CC(=O)c1cn(CC(=O)N2C[C@H](F)C[C@H]2C(=O)N[C@H](C)c2oc3ccc(F)cc3c2C)c2ccc(Nc3cncnc3)cc12 : IC50 is > 10 µM

###

- Subject of test: Human Factor D (Homo sapiens (Human), UniProt P00746)
- Protocol notes: Human Factor D Assay
- Type: biochemical
- Measurement parameters: Table 1; Factor D purified from human serum, 80 nM, substrate Z-L-Lys-SBzl; read-out: IC50
For each of the compounds below, state its IC50.

Answered examples (10):
CC(=O)c1cn(CC(=O)N2C[C@H](F)C[C@H]2C(=O)Nc2ccc3[nH]c(C)c(C)c3c2)c2ccc(Nc3cncnc3)cc12 [Compound 38]    < 1000 nM
NC(=O)c1nn(CC(=O)N2C[C@H](F)C[C@H]2C(=O)Nc2cccc(Cl)n2)c2ccc(Nc3cccnn3)cc12 [Compound 11]    < 1000 nM
CC(=O)c1cn(CC(=O)N2C[C@H](F)C[C@H]2C(=O)NC2CCCN(c3ccccc3Cl)C2=O)c2ccc(Nc3cncnc3)cc12 (stereo partly shown) [Compound 58]    < 1000 nM
CC(=O)c1cn(CC(=O)N2C[C@H](F)C[C@H]2C(=O)Nc2ncc(Br)cn2)c2ccc(Nc3cncnc3)cc12 [Compound 44]    < 1000 nM
NC(=O)c1nn(CC(=O)N2C[C@H](F)C[C@H]2C(=O)Nc2cccc(-c3ccccc3Cl)c2F)c2ccc(Nc3cnc(C(F)(F)F)nc3)cc12 [Compound 14]    < 1000 nM
CC(=O)c1cn(CC(=O)N2C[C@H](F)C[C@H]2C(=O)Nc2cccc(-c3ccccc3Cl)c2F)c2ccc(N(COC(=O)C(C)(C)C)c3cncnc3)cc12 [Compound 15]    1000 to 10000 nM
CC(=O)c1cn(CC(=O)N2C[C@H](F)C[C@H]2C(=O)Nc2cccc(Br)n2)c2ccc(Nc3cncnc3)cc12 [Compound 4]    < 1000 nM
CC(=O)c1cn(CC(=O)N2C[C@H](F)C[C@H]2C(=O)Nc2cncc(Br)n2)c2ccc(Nc3cncnc3)cc12 [Compound 47]    < 1000 nM
CC(=O)c1cn(CC(=O)N2C[C@H](F)C[C@H]2C(=O)Nc2ccc(O)cn2)c2ccc(Nc3cncnc3)cc12 [Compound 70]    1000 to 10000 nM
CC(=O)c1cn(CC(=O)N2C[C@H](F)C[C@H]2C(=O)Nc2ccccc2-c2nncn2C)c2ccc(Nc3cncnc3)cc12 [Compound 61]    > 10000 nM

Please report IC50 for every entry that follows.
1. CC(=O)c1cn(CC(=O)N2C[C@H](F)C[C@H]2C(=O)Nc2ccc3cn[nH]c3c2)c2ccc(Nc3cncnc3)cc12 [Compound 25]
2. NC(=O)c1nn(CC(=O)N2C[C@H](F)C[C@H]2C(=O)Nc2cccc(-c3ccccc3Cl)c2F)c2ccc(Nc3cccnn3)cc12 [Compound 9]
3. NC(=O)c1nn(CC(=O)N2C[C@H](F)C[C@H]2C(=O)Nc2cccc(-c3ccccc3Cl)c2F)c2ccc(Nc3cncnc3)cc12 [Compound 10]

Reply:
["< 1000 nM", "< 1000 nM", "< 1000 nM"]
